Molecular target: STARD4 (Homo sapiens, UniProt Q96DR4, C75S)
Construct: STARD4(2-205; C75S); made in house; host or cells: E. coli BL21(DE3)
Sequence (Q96DR4 2-205 C75S): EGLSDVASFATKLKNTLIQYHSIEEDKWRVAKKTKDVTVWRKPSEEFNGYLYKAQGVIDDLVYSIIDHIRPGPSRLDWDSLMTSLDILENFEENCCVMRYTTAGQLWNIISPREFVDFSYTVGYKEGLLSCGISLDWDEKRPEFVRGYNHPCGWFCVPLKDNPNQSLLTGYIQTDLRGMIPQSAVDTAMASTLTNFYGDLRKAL
Test: Differential scanning fluorimetry (DSF), STARD4
Type: binding
Conditions: single dose, Dose = 10 µM
Below is a list of entries, each paired with its recorded STARD4 (DSF) ΔTm value.
measured parameter: STARD4 (DSF) ΔTm (°C)

* C[C@]12CC[C@@H](O)C[C@H]1CCc1nc3cc(F)c(F)cc3nc12 | 0.0575
* CCCCCN(c1ccc2c(c1)[C@@]13CC[C@@H]4C[C@@H](CC[C@@]41C)OC3=N2)c1ccc2c(c1)[C@@]13CC[C@@H]4C[C@@H](CC[C@@]41C)OC3=N2 [Compound 20b] | -0.0184
* C[C@]12CC[C@@H](O)C[C@H]1CCc1c2[nH]c2ccc(F)cc12 [Compound 10d] | 0.167

---

Molecular target: STARD3 (Homo sapiens)
Construct: STARD3(216-444); made in house; host or cells: E. coli BL21(DE3)
Sequence (Q14849 216-444): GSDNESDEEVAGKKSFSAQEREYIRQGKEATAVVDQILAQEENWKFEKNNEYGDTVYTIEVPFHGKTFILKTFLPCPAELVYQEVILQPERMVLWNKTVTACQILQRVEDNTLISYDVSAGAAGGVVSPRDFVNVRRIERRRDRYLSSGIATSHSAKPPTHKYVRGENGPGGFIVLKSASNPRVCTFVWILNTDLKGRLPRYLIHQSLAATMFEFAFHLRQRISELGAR
Assay: Differential scanning fluorimetry (DSF), STARD3
Type: binding
Settings: single dose, Dose = 10 µM
measured parameter: ΔTm at 10 µM (°C)

* C[C@]12CC[C@@H]3C[C@H]1CC[C@@]21C(=Nc2ccc(F)cc21)O3 [Compound 15d] | 0.129
* C[C@]12CC[C@@H](O)C[C@H]1CCC(=O)c1cc(C(F)(F)F)ccc1NC2=O [Compound 11e] | -0.0434
* C[C@]12CC[C@@H](O)C[C@H]1CCC[C@]21Nc2ccccc2-n2cccc21 [Compound 4] | 0.5
* Cc1ccc2c(c1)C(=O)CC[C@@H]1C[C@H](O)CC[C@]1(C)C(=O)N2 [Compound 11c] | -0.0522
* Cc1ccc2c(c1)[C@@]13CC[C@@H]4C[C@@H](CC[C@@]41C)OC3=N2 [Compound 15e] | 0.167
* C[C@]12CC[C@@H](O)C[C@H]1CCc1nc3ccccc3nc12 [Compound 7a] | -0.1
* C[C@]12CC[C@@H]3C[C@H]1CC[C@@]21C(=Nc2ccccc21)O3 [Compound 15a] | -0.061
* C[C@]12CC[C@@H]3C[C@H]1CC[C@@]21C(=Nc2ccc(-c4ccccc4)cc21)O3 [Compound 21a] | 3
* Cc1ccc2c(c1)C(=O)[C@]1(CC[C@@H]3C[C@H](O)CC[C@@]31C)N2 [Compound 13] | -0.0638
* Cc1cc(C)c2c(c1)NC(=O)[C@@]1(C)CC[C@@H](O)C[C@H]1CCC2=O [Compound 11g] | -0.0181
* CC12CCC3CC1CCC21C(=Nc2ccc(N4CCOCC4)cc21)O3 (racemic) [Compound 19a] | 1.2
* COc1ccc(-c2nc3c(s2)CC[C@@H]2C[C@H](O)CC[C@]32C)cc1 [Compound 8d] | 0.5
* Cc1ccc2c(c1)[C@]1(O)CC[C@@H]3C[C@H](O)CC[C@]3(C)C1=N2 [Compound 14a] | 0.2
* CC12CCC3CC1CCC21C(=Nc2ccc(N4CCNCC4)cc21)O3 (centres unmarked) [Compound 22] | 0.0739
* C[C@]12CC[C@@H]3C[C@H]1CC[C@@]21C(=Nc2ccc(C(F)(F)F)cc21)O3 [Compound 15g] | 0.655
* COc1ccc2c(c1)[C@]1(O)CC[C@@H]3C[C@H](O)CC[C@]3(C)C1=N2 [Compound 14b] | 0.0447
* CC12CCC3CC1CCC21C(=Nc2c(Br)cc(C(F)(F)F)cc21)O3 (centres unmarked) [Compound 15h] | 0.0409
